Consider the following molecules; for each one, report its LD50.
MEASUREMENT DESCRIPTION: Toxicity in mice, sub-cutaneous administration (LD50)
CONDITION NOTES: mouse, in vivo, sc

Field request: LD50 | item: N#CCOC/C=C1\O[C@@H]2CC(=O)N2[C@H]1C(=O)O [Example 12, Sodium 9-O-cyanomethylclavulanate]
> 250 mg/kg

Also check O=C(O)[C@H]1/C(=C/COCc2ccccc2)O[C@@H]2CC(=O)N21 [Example 5, Sodium 9-O-benzylclavulanate]
> 250 mg/kg

====

MEASUREMENT DESCRIPTION: Blood levels in mice after sub-cutaneous administration
Type: in vivo
CONDITION NOTES: mouse, sc, 50 mg/kg, 30 min, read-out: Blood level, mean result for 5 mice
OBSERVABLE: concentration at 0.5 h (ng/mL)
Report only the number, with the unit ng/mL understood.

Value lookup for concentration at 0.5 h; key = COC/C=C1\O[C@@H]2CC(=O)N2[C@H]1C(=O)O [Example 3, Sodium 9-O-methylclavulanate]
7900

Please do the same for O=C(O)[C@H]1/C(=C/CO)O[C@@H]2CC(=O)N21 [Sodium clavulanate, reference compound] as well.
2990

====

TARGET UNDER TEST: Staphylococcus aureus Russell β-lactamase (Staphylococcus aureus, UniProt P00807)
Sequence (P00807 25-281): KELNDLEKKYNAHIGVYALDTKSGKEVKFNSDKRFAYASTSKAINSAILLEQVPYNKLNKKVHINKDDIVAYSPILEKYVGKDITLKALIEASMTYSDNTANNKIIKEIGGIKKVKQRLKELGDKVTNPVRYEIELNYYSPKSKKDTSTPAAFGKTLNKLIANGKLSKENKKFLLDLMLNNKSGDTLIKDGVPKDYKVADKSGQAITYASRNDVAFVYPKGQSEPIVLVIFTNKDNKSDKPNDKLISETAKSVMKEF
MEASUREMENT DESCRIPTION: β-lactamase inhibition I50
OBSERVABLE: IC50 (nM)
Quick note: give the figure in nM, leave out the unit.

Requested read-out IC50, target or system Staphylococcus aureus Russell β-lactamase (Staphylococcus aureus, UniProt P00807), entry "CCOC(=O)COC/C=C1\O[C@@H]2CC(=O)N2[C@H]1C(=O)O"
154

// next record COC/C=C1\O[C@@H]2CC(=O)N2[C@H]1C(=O)OC [Example 1, Methyl 9--O--methylclavulanate]
2200

Also need COC/C=C1\O[C@@H]2CC(=O)N2[C@H]1C(=O)O [Example 3, Sodium 9-O-methylclavulanate] , thanks.
235

====

Task for the reader: assign each of the following compounds its reported concentration at 1 h.
MEASUREMENT DESCRIPTION: Blood levels in mice after sub-cutaneous administration
Assay type: in vivo
CONDITION NOTES: mouse, sc, 50 mg/kg, 60 min, read-out: Blood level, mean result for 5 mice
Experimental: a. Blood levels in mice after sub-cutaneous administration of 50 mg/kg of a solution of sodium O-methylclavulanate
Respond with the bare value in ng/mL.

Query (compound): O=C(O)[C@H]1/C(=C/CO)O[C@@H]2CC(=O)N21 [Sodium clavulanate, reference compound] ; field requested: concentration at 1 h
500

Next entry: COC/C=C1\O[C@@H]2CC(=O)N2[C@H]1C(=O)O [Example 3, Sodium 9-O-methylclavulanate]
1400

====

MEASUREMENT DESCRIPTION: Blood levels in mice after oral administration
Format: in vivo
CONDITION NOTES: mouse, 20 mg/kg, 30 min, read-out: Blood level
OBSERVABLE: concentration at 0.5 h (ng/mL)
Give just the number in ng/mL; leave the unit off.

Fill blank: measured concentration at 0.5 h of the compound COC/C=C1\O[C@@H]2CC(=O)N2[C@H]1C(=O)O [Example 3, Sodium 9-O-methylclavulanate] is ____.
3400

====

MEASUREMENT DESCRIPTION: Blood levels in mice after sub-cutaneous administration
Type: in vivo
CONDITION NOTES: mouse, sc, 50 mg/kg, 10 min, read-out: Blood level, mean result for 5 mice
OBSERVABLE: concentration at 10 min
Give the value; after it, write the unit.

concentration at 10 min for COC/C=C1\O[C@@H]2CC(=O)N2[C@H]1C(=O)O [Example 3, Sodium 9-O-methylclavulanate] ?
14500 ng/mL

Would you mind doing O=C(O)[C@H]1/C(=C/CO)O[C@@H]2CC(=O)N21 [Sodium clavulanate, reference compound] as well?
9300 ng/mL

====

Exercise: state measured β-lactamase inhibition I50, Klebsiella aerogenes E70 for each of the compounds provided.
TARGET UNDER TEST: Klebsiella aerogenes E70 β-lactamase
MEASUREMENT DESCRIPTION: β-lactamase inhibition I50
Assay type: biochemical

Find the recorded β-lactamase inhibition I50, Klebsiella aerogenes E70 belonging to COC/C=C1\O[C@@H]2CC(=O)N2[C@H]1C(=O)OC [Example 1, Methyl 9--O--methylclavulanate] and report it.
0.25 µg/mL

For COC/C=C1\O[C@@H]2CC(=O)N2[C@H]1C(=O)OCc1ccccc1 [Example 2, Benzyl 9-O-methylclavulanate] then?
0.05 µg/mL

Entry O=C(O)[C@H]1/C(=C/COCc2ccccc2)O[C@@H]2CC(=O)N21 [Example 5, Sodium 9-O-benzylclavulanate] please
0.04 µg/mL

====

TARGET UNDER TEST: Escherichia coli JT4 β-lactamase (Escherichia coli, UniProt P62593)
Sequence (P62593 24-286 limits assumed): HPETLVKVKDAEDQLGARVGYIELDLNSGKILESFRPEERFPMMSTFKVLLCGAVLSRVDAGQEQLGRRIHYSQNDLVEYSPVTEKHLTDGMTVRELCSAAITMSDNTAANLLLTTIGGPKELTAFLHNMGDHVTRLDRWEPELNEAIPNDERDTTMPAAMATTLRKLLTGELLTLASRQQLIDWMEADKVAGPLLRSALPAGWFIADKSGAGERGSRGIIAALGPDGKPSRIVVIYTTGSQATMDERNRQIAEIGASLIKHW
MEASUREMENT DESCRIPTION: β-lactamase inhibition I50
OBSERVABLE: IC50 (nM)
Use nM as the unit, but write only the number.

Which IC50 reading was recorded for the compound "CCOC(=O)COC/C=C1\O[C@@H]2CC(=O)N2[C@H]1C(=O)O" ?
561

For COC/C=C1\O[C@@H]2CC(=O)N2[C@H]1C(=O)O [Example 3, Sodium 9-O-methylclavulanate] then?
844

Again, but for "CCOC(=O)COC/C=C1\O[C@@H]2CC(=O)N2[C@H]1C(=O)OCc1ccccc1"
373

Now this one: O=C(O)[C@H]1/C(=C/COCc2ccccc2)O[C@@H]2CC(=O)N21 [Example 5, Sodium 9-O-benzylclavulanate]
346

====

TARGET UNDER TEST: Proteus mirabilis C889 β-lactamase
MEASUREMENT DESCRIPTION: β-lactamase inhibition I50
Type: biochemical
OBSERVABLE: β-lactamase inhibition I50, Proteus mirabilis C889 (µg/mL)
Please give a number only; it is taken to be in µg/mL.

Request - read-out β-lactamase inhibition I50, Proteus mirabilis C889 | tested on Proteus mirabilis C889 β-lactamase | molecule COC/C=C1\O[C@@H]2CC(=O)N2[C@H]1C(=O)O [Example 3, Sodium 9-O-methylclavulanate]
0.01

Follow-up entry: CCOC(=O)COC/C=C1\O[C@@H]2CC(=O)N2[C@H]1C(=O)OCc1ccccc1 [Example 6]
1.0

Now consider O=C(O)[C@H]1/C(=C/COCc2ccccc2)O[C@@H]2CC(=O)N21 [Example 5, Sodium 9-O-benzylclavulanate] .
0.02

Then CCOC(=O)COC/C=C1\O[C@@H]2CC(=O)N2[C@H]1C(=O)O [Example 7] ?
0.025

====

Exercise: for every item that follows, state its recorded IC50.
TARGET UNDER TEST: Escherichia coli JT4 β-lactamase (Escherichia coli)
MEASUREMENT DESCRIPTION: β-lactamase inhibition I50
Numbers only here, please. The scale is nM.

Need IC50, item COC(=O)[C@H]1/C(=C/COCc2ccccc2)O[C@@H]2CC(=O)N21 [Example 4, Methyl 9-O-benzylclavulanate]
2640

Now try COC/C=C1\O[C@@H]2CC(=O)N2[C@H]1C(=O)OC [Example 1, Methyl 9--O--methylclavulanate] .
3960

Another compound to look at: COC/C=C1\O[C@@H]2CC(=O)N2[C@H]1C(=O)OCc1ccccc1 [Example 2, Benzyl 9-O-methylclavulanate]
330

====

TARGET UNDER TEST: Escherichia coli JT410 β-lactamase (Escherichia coli, UniProt P00811)
Sequence (P00811 20-377): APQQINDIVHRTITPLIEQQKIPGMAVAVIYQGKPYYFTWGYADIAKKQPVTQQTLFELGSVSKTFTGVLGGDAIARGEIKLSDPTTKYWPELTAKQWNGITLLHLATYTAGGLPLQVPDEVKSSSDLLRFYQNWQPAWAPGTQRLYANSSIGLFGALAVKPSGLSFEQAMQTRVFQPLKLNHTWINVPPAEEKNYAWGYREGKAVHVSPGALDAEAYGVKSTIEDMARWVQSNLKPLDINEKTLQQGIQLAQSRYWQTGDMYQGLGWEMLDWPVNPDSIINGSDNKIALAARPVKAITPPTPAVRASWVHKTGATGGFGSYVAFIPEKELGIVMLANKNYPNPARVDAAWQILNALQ
MEASUREMENT DESCRIPTION: β-lactamase inhibition I50
OBSERVABLE: pIC50
# pIC50 = -log10(concentration in molar units)

Query (compound): COC/C=C1\O[C@@H]2CC(=O)N2[C@H]1C(=O)OC [Example 1, Methyl 9--O--methylclavulanate] ; field requested: pIC50
4.87

====

MEASUREMENT DESCRIPTION: Blood levels in mice after oral administration
Type: in vivo
CONDITION NOTES: mouse, 20 mg/kg, 60 min, read-out: Blood level
OBSERVABLE: concentration at 1 h
Reply with the number and its unit after it.

Which concentration at 1 h reading was recorded for the compound COC/C=C1\O[C@@H]2CC(=O)N2[C@H]1C(=O)O [Example 3, Sodium 9-O-methylclavulanate] ?
1200 ng/mL

====

Can you tell me β-lactamase inhibition I50, Klebsiella aerogenes E70 for the items I'm about to list?
TARGET UNDER TEST: Klebsiella aerogenes E70 β-lactamase
MEASUREMENT DESCRIPTION: β-lactamase inhibition I50
Assay type: biochemical
Numeric only. Scale: µg/mL

Requested field: β-lactamase inhibition I50, Klebsiella aerogenes E70. Item: COC/C=C1\O[C@@H]2CC(=O)N2[C@H]1C(=O)O [Example 3, Sodium 9-O-methylclavulanate]
0.07

Follow-up item: COC(=O)[C@H]1/C(=C/COCc2ccccc2)O[C@@H]2CC(=O)N21 [Example 4, Methyl 9-O-benzylclavulanate]
0.8

Next compound up: CCOC(=O)COC/C=C1\O[C@@H]2CC(=O)N2[C@H]1C(=O)OCc1ccccc1 [Example 6]
0.30

Subsequent entry: CCOC(=O)COC/C=C1\O[C@@H]2CC(=O)N2[C@H]1C(=O)O [Example 7]
0.034
